target or test system: AHR (Homo sapiens)
Construct: U87 MG glioblastoma cells (ATCC #HTB-14) endogenously expressing AHR; endogenous in cells; host or cells: U87 MG glioblastoma cells (ATCC #HTB-14)
assay summary: In vitro assay 1: antagonism in human cell line (AHR transactivation, firefly luciferase reporter, kynurenic acid prestimulated)
Format: cell-based
run conditions: AHR Antagonism Human IC50 [M]
Description: Examples were tested in selected biological assays one or more times. […] Firefly luciferase and Renilla activity was determined by the DualGlo Luciferase Assay System (Promega, #2920). […]
Each entry below carries its recorded log10 IC50.
Please interpret these as log10 of IC50 where IC50 is in M.

test smiles: COc1ccc(-c2nc3c4cccc(Br)c4nc(N[C@H]4CCCCNC4=O)n3n2)c(C(F)(F)F)c1
value: -6.09
--
test smiles: COc1ccc(-c2nc3c4c(C(C)C)cccc4nc(N[C@@H]4CCCCNC4=O)n3n2)cc1
value: -4.96
--
test smiles: Cc1sccc1-c1nc2c3ccccc3nc(N[C@@H]3CCN(C)C3=O)n2n1
value: -7.38

log10 IC50 reading for COc1ccc(-c2nc3c4c(N5CCOCC5)cccc4nc(N[C@@H]4CCCCNC4=O)n3n2)cc1 : -6.86

log10 IC50 reading for COc1ccc2nc(N[C@@H]3CCCCNC3=O)n3nc(-c4ccccc4F)nc3c2c1 : -7.39

----------
target or test system: AHR (Homo sapiens, UniProt P35869)
Construct: U87 MG glioblastoma cells (ATCC #HTB-14) endogenously expressing AHR; endogenous in cells; host or cells: U87 MG glioblastoma cells (ATCC #HTB-14)
Sequence (P35869 11-848): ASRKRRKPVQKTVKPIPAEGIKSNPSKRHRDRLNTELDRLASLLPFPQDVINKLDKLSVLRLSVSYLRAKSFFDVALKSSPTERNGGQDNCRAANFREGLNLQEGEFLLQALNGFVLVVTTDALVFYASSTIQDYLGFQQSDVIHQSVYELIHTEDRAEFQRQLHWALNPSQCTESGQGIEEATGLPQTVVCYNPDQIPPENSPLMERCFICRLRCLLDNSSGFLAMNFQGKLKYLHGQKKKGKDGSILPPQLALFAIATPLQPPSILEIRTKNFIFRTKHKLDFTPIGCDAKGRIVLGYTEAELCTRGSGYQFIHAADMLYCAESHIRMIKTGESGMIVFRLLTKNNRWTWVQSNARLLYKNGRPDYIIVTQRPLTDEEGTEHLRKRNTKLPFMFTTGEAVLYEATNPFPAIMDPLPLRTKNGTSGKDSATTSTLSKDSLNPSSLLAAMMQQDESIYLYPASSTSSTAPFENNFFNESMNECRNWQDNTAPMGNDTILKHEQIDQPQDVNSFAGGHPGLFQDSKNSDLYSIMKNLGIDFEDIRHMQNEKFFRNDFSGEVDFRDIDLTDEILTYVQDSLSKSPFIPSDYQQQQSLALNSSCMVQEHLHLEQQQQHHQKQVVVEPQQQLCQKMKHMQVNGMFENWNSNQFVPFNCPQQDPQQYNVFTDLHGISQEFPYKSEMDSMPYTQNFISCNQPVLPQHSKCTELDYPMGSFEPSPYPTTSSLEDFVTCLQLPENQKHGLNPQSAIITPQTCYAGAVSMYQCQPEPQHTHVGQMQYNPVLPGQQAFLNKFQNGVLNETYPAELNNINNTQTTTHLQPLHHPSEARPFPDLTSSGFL
assay summary: In vitro assay 1: antagonism in human cell line (AHR transactivation, firefly luciferase reporter, kynurenic acid prestimulated)
Assay type: cell-based
run conditions: AHR Antagonism Human IC50 [M]
Each entry below carries its recorded IC50.
Field: numeric (M). Do not append units.

# example entries with known answers
test smiles: O=C1NCCCC[C@@H]1Nc1nc2ccccc2c2nc(-c3ccc(Cl)cc3OC(F)(F)F)nn12
target or test system: AHR (Homo sapiens, UniProt P35869)
IC50, M: 4.5e-08
--
test smiles: N#Cc1cccc(-c2nc3c4ccccc4nc(N[C@@H]4CCCCNC4=O)n3n2)c1
target or test system: AHR (Homo sapiens, UniProt P35869)
IC50, M: 1.02e-08
--
test smiles: COc1ccc(-c2nc3c4ccccc4nc(N[C@H](C)C(=O)NC(C)C)n3n2)cc1
target or test system: AHR (Homo sapiens, UniProt P35869)
IC50, M: 3.31e-08
--
test smiles: NC(=O)[C@@H](CO)Nc1nc2ccccc2c2nc(-c3ccc(OC(F)(F)F)cc3)nn12
target or test system: AHR (Homo sapiens, UniProt P35869)
IC50, M: 5.94e-09
--
test smiles: CN1CC[C@@H](Nc2nc3ccccc3c3nc(-c4ccccc4OC(F)(F)F)nn23)C1=O
target or test system: AHR (Homo sapiens, UniProt P35869)
IC50, M: 7.67e-08
--
test smiles: COc1ccc(-c2nc3c4cccc(F)c4nc(N[C@@H]4CNCCNC4=O)n3n2)cc1
target or test system: AHR (Homo sapiens, UniProt P35869)
IC50, M: 1.84e-08
--
test smiles: O=C1NCCCC[C@H]1Nc1nc2ccccc2c2nc(-c3cccnn3)nn12
target or test system: AHR (Homo sapiens, UniProt P35869)
IC50, M: 1.03e-07
--
test smiles: Cc1n[nH]cc1-c1nc2c3cccc(C(F)(F)F)c3nc(N[C@@H]3CCCCNC3=O)n2n1
target or test system: AHR (Homo sapiens, UniProt P35869)
IC50, M: 7.48e-09
--
test smiles: COCCn1cc(-c2nc3c4ccccc4nc(N[C@@H]4CCCCNC4=O)n3n2)cn1
target or test system: AHR (Homo sapiens, UniProt P35869)
IC50, M: 6.11e-08
--
test smiles: O=C1NCCCC[C@@H]1Nc1nc2ccccc2c2nc(-c3ccsc3)nn12
target or test system: AHR (Homo sapiens, UniProt P35869)
IC50, M: 1.18e-07

IC50 reading for CCCCNC(=O)CNc1nc2ccccc2c2nc(-c3cccc(OC(F)(F)F)c3)nn12 : 1.45e-07

IC50 reading for Cn1cc(-c2nc3c4c(Br)cccc4nc(N[C@@H]4CCCCNC4=O)n3n2)cn1 : 1.65e-08
